Source listed as paper PMC8298633.

PROCEDURE_DETAILS: Pharmacokinetic study: plasma cannabinoids after single oral gavage of full-spectrum cannabis extract or individual cannabinoid
EXPERIMENTAL_SETUP: mouse plasma, single oral dose of extract
VALUE_TYPE: Detection in plasma following oral administration of the full-spectrum extract

{"MOLECULE": "CCCCCc1cc(O)c(C/C=C(\\C)CCC=C(C)C)c(O)c1C(=O)O [CBGA, cannabigerolic acid]", "REPORTED": "detected"}
{"MOLECULE": "C=C(C)[C@@H]1CCC(C)=C[C@H]1c1c(O)cc(CCC)c(C(=O)O)c1O [CBDVA, cannabidivarinic acid]", "REPORTED": "detected"}

###

System: wildtype MDCK cells
PROCEDURE_DETAILS: Bidirectional transwell transport assay, wildtype MDCK cell monolayers
EXPERIMENTAL_SETUP: wildtype MDCK cells, 10 µM cannabinoid, apical to basolateral
VALUE_TYPE: P (A > B)

Observed P (A > B) on wildtype MDCK cells, entry C=C(C)[C@@H]1CCC(C)=C[C@H]1c1c(O)cc(CCC)c(C(=O)O)c1O , equals 22 ± 3 × 10^−5 cm/s

Lab note: molecule C=C(C)[C@@H]1CCC(C)=C[C@H]1c1c(O)cc(CCC)cc1O tested on wildtype MDCK cells; recorded P (A > B) was 43 ± 5 × 10^−5 cm/s

wildtype MDCK cells data for C=C(C)[C@@H]1CCC(C)=C[C@H]1c1c(O)cc(CCCCC)c(C(=O)O)c1O ; its P (A > B): 31 ± 8 × 10^−5 cm/s

# lookup: CCCCCc1cc(O)c(C/C=C(\C)CCC=C(C)C)c(O)c1 on wildtype MDCK cells, P (A > B) = 12 ± 5 × 10^−5 cm/s

// molecule CCCCCc1cc(O)c2c(c1)OC(C)(C)[C@@H]1CCC(C)=C[C@@H]21 [Δ^9-THC, Δ^9-tetrahydrocannabinol, reference compound] , assay wildtype MDCK cells, P (A > B) value: 9 ± 3 × 10^−5 cm/s

Log: wildtype MDCK cells, molecule C=C(C)[C@@H]1CCC(C)=C[C@H]1c1c(O)cc(CCCCC)cc1O , P (A > B) = 41 ± 5 × 10^−5 cm/s

###

PROCEDURE_DETAILS: Pharmacokinetic study: plasma cannabinoids after single oral gavage of full-spectrum cannabis extract or individual cannabinoid
EXPERIMENTAL_SETUP: both, mouse, plasma, po, tmax, mouse plasma, oral, administered as individual cannabinoid; doses mg/kg: CBD 25, CBDA 50, CBDVA 7, CBGA 7, THC 15, THCA 50
VALUE_TYPE: tmax
Don't forget the unit after the value.

So, C=C(C)[C@@H]1CCC(C)=C[C@H]1c1c(O)cc(CCCCC)c(C(=O)O)c1O [CBDA, cannabidiolic acid] ? Its tmax was 1.5 h

// CCCCCc1cc(O)c(C/C=C(\C)CCC=C(C)C)c(O)c1C(=O)O [CBGA, cannabigerolic acid] : tmax value = 2 h

Note to self: tmax recorded for C=C(C)[C@@H]1CCC(C)=C[C@H]1c1c(O)cc(CCCCC)cc1O [CBD, cannabidiol] was 1.5 h

###

PROCEDURE_DETAILS: Pharmacokinetic study: plasma cannabinoids after single oral gavage of full-spectrum cannabis extract or individual cannabinoid
EXPERIMENTAL_SETUP: both, mouse, plasma, po, 7 mg/kg, AUC (does not include terminal phase), mouse plasma, administered as individual cannabinoid, CBGA 7 mg/kg
VALUE_TYPE: AUC (µg·h/mL)
A number alone suffices; assume µg·h/mL.

// sample CCCCCc1cc(O)c(C/C=C(\C)CCC=C(C)C)c(O)c1C(=O)O [CBGA, cannabigerolic acid] , its AUC was 144
